The reported measurements were obtained from patent US8835644B2.

- System: E. coli
- ASSAY_COMMENT: MIC testing by broth dilution, E. coli plank
- Format: cell-based, Escherichia coli
- CONDITION_SUMMARY: Escherichia coli, 24 h, read-out: MIC (μM) E. coli Plank
Counter-ions that a name gives are not always drawn.
Known MIC of a selection of compounds

[
  {
    "COMPOUND": "O=C(Nc1ncc([N+](=O)[O-])s1)c1cccc(C(F)(F)F)c1 [VPC161183]",
    "MIC, µM": 37.8
  },
  {
    "COMPOUND": "O=C(Nc1ccccc1)Nc1ncc([N+](=O)[O-])s1 [VPC161223, 1-(5-Nitrothiazol-2-yl)-3-phenylurea]",
    "MIC, µM": 121
  },
  {
    "COMPOUND": "NCCOC(=O)COc1ccccc1C(=O)Nc1ncc([N+](=O)[O-])s1 [VPC162082, hydrochloride]",
    "MIC, µM": 79.4
  },
  {
    "COMPOUND": "O=C(CCCC(=O)Nc1ncc([N+](=O)[O-])s1)Nc1ncc([N+](=O)[O-])s1 [VPC161276]",
    "MIC, µM": 82.8
  },
  {
    "COMPOUND": "O=C(Nc1ncc([N+](=O)[O-])s1)c1ccc(F)cc1 [VPC161167]",
    "MIC, µM": 120
  },
  {
    "COMPOUND": "NCCOc1ccsc1C(=O)Nc1ncc([N+](=O)[O-])s1 [VPC162125, hydrochloride]",
    "MIC, µM": 91.2
  },
  {
    "COMPOUND": "CC(C)(C)OC(=O)Nc1ccccc1C(=O)Nc1ncc([N+](=O)[O-])s1 [VPC162047]",
    "MIC, µM": 87.8
  },
  {
    "COMPOUND": "O=C(Nc1ncc([N+](=O)[O-])s1)c1cccnc1F [VPC16a1052]",
    "MIC, µM": 119
  }
]

====

- System: PFOR (pyruvate ferredoxin oxidoreductase)
- ASSAY_COMMENT: Direct PFOR enzyme assay
- Assay type: biochemical
Counter-ions that a name gives are not always drawn.
Measured PFOR inhibition relative to nitazoxanide (=100) accompanies every entry in the list below.
REPORTED_PROPERTY: PFOR inhibition relative to nitazoxanide (=100) (%)

[
  {
    "MOLECULE": "O=C(Nc1ncc([N+](=O)[O-])s1)C1CCCCC1",
    "UNIT_SYMBOL": "%",
    "NUMERIC_RESULT": 93
  },
  {
    "MOLECULE": "NCCCc1ccccc1C(=O)Nc1ncc([N+](=O)[O-])s1 [VPC162134, hydrochloride]",
    "UNIT_SYMBOL": "%",
    "NUMERIC_RESULT": 144
  },
  {
    "MOLECULE": "CCCCCC(=O)Nc1ncc([N+](=O)[O-])s1 [VPC16a1007, N-(5-Nitrothiazol-2-yl)hexanamide]",
    "UNIT_SYMBOL": "%",
    "NUMERIC_RESULT": 123
  },
  {
    "MOLECULE": "COc1cccc(C(=O)Nc2ncc([N+](=O)[O-])s2)c1",
    "UNIT_SYMBOL": "%",
    "NUMERIC_RESULT": 82
  },
  {
    "MOLECULE": "O=C(Nc1ncc([N+](=O)[O-])s1)c1cccc(C(F)(F)F)c1",
    "UNIT_SYMBOL": "%",
    "NUMERIC_RESULT": 87
  },
  {
    "MOLECULE": "O=C(Nc1ncc([N+](=O)[O-])s1)c1cccnc1F",
    "UNIT_SYMBOL": "%",
    "NUMERIC_RESULT": 91
  },
  {
    "MOLECULE": "NCCOc1ccsc1C(=O)Nc1ncc([N+](=O)[O-])s1 [VPC162125, hydrochloride]",
    "UNIT_SYMBOL": "%",
    "NUMERIC_RESULT": 137
  },
  {
    "MOLECULE": "N#Cc1ccc(C(=O)Nc2ncc([N+](=O)[O-])s2)cc1",
    "UNIT_SYMBOL": "%",
    "NUMERIC_RESULT": 74
  }
]

====

Recorded MIC values for a group of compounds are listed next.
- System: S. epidermidis
- ASSAY_COMMENT: MIC testing by broth dilution, S. epidermidis plank
- Type: cell-based, Staphylococcus epidermidis
- CONDITION_SUMMARY: broth dilution, Trypticase Soy, 24 h; read-out: MIC (μM) S. epidermidis Plank

[
  {
    "COMPOUND": "O=C(Nc1ncc([N+](=O)[O-])s1)c1cc(C(F)(F)F)ccc1Cl",
    "MIC [µM]": 22.7
  },
  {
    "COMPOUND": "O=C(Nc1ncc([N+](=O)[O-])s1)c1ccncc1",
    "MIC [µM]": 127.9
  },
  {
    "COMPOUND": "Cn1cc(C(=O)Nc2ncc([N+](=O)[O-])s2)c2ccccc21",
    "MIC [µM]": 5.0
  },
  {
    "COMPOUND": "COc1cccc(C(=O)Nc2ncc([N+](=O)[O-])s2)c1",
    "MIC [µM]": 28.6
  },
  {
    "COMPOUND": "CC(C)(C(=O)Nc1ncc([N+](=O)[O-])s1)C(=O)Nc1ncc([N+](=O)[O-])s1",
    "MIC [µM]": 82.8
  },
  {
    "COMPOUND": "O=C(Nc1ncc([N+](=O)[O-])s1)c1ccccc1C(F)(F)F",
    "MIC [µM]": 25.2
  },
  {
    "COMPOUND": "O=C(Nc1ncc([N+](=O)[O-])s1)c1cccc(F)c1",
    "MIC [µM]": 22.5
  },
  {
    "COMPOUND": "O=C(CCc1ccccc1)Nc1ncc([N+](=O)[O-])s1",
    "MIC [µM]": 14.4
  },
  {
    "COMPOUND": "O=C(Nc1ncc([N+](=O)[O-])s1)c1cc(F)c(F)cc1F",
    "MIC [µM]": 33.0
  },
  {
    "COMPOUND": "Cl.NCCCCOc1ccccc1C(=O)Nc1ncc([N+](=O)[O-])s1 [VPC162096HCl]",
    "MIC [µM]": 42.9
  },
  {
    "COMPOUND": "Cl.O=C(COc1ccccc1C(=O)Nc1ncc([N+](=O)[O-])s1)OC1CNC1",
    "MIC [µM]": 77.1
  },
  {
    "COMPOUND": "COc1ccccc1C(=O)Nc1ncc([N+](=O)[O-])s1",
    "MIC [µM]": 114.6
  },
  {
    "COMPOUND": "CC(=O)NCCOc1ccccc1C(=O)Nc1ncc([N+](=O)[O-])s1",
    "MIC [µM]": 22.8
  },
  {
    "COMPOUND": "O=C(CCCc1ccccc1)Nc1ncc([N+](=O)[O-])s1",
    "MIC [µM]": 109.8
  },
  {
    "COMPOUND": "CC1=C(C(=O)Nc2ncc([N+](=O)[O-])s2)Cc2ccccc21",
    "MIC [µM]": 106.2
  },
  {
    "COMPOUND": "CCCC(=O)Nc1ncc([N+](=O)[O-])s1",
    "MIC [µM]": 37.2
  },
  {
    "COMPOUND": "O=C(Nc1ncc([N+](=O)[O-])s1)c1ccc(F)c([N+](=O)[O-])c1",
    "MIC [µM]": 51.2
  },
  {
    "COMPOUND": "CCCCCCCCCC(=O)Nc1ncc([N+](=O)[O-])s1",
    "MIC [µM]": 106.9
  },
  {
    "COMPOUND": "NCCOc1ccccc1C(=O)Nc1ncc([N+](=O)[O-])s1.O=C(O)C(F)(F)F [VPC161219TFA]",
    "MIC [µM]": 75.8
  }
]

====

- Test system: C. jejuni
- ASSAY_COMMENT: MIC testing by broth dilution, C. jejuni
- Assay type: cell-based, Campylobacter jejuni
- CONDITION_SUMMARY: Campylobacter jejuni; Thiophene analogues table; read-out: MIC C. jejuni

[
  {
    "COMPOUND": "O=C(Nc1ncc([N+](=O)[O-])s1)c1ccc(Br)s1 [VPC161282]",
    "UNIT_SYMBOL": "µM",
    "MIC": 9.9
  },
  {
    "COMPOUND": "O=C(Nc1nccs1)c1sc2cc(F)ccc2c1Cl [VPC161235]",
    "UNIT_SYMBOL": "µM",
    "MIC": 102
  },
  {
    "COMPOUND": "O=C(Nc1ncc([N+](=O)[O-])s1)c1cccs1 [VPC161195]",
    "UNIT_SYMBOL": "µM",
    "MIC": 2.9
  },
  {
    "COMPOUND": "O=C(Nc1ncc([N+](=O)[O-])s1)c1sc2ccccc2c1Cl [VPC161181]",
    "UNIT_SYMBOL": "µM",
    "MIC": 5.9
  }
]
